molecular target: human Plk4 kinase domain (aa 2-275) (Homo sapiens, UniProt O00444); construct: purified 6×His-tagged human Plk4 kinase domain (aa 2-275); 6xHis; made in house; host or cells: E. coli; assay: Plk4 kinase assay (ADP-Glo); format: biochemical; conditions: Table 1
Sequence (O00444 2-275): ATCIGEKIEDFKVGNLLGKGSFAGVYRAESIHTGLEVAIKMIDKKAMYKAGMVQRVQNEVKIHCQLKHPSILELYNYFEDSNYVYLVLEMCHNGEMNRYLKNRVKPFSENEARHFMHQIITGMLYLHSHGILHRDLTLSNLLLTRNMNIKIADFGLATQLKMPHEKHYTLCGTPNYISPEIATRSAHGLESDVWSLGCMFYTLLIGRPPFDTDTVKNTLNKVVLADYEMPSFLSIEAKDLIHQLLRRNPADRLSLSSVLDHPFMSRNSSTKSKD
pIC50: −log10 of the molar value.
Known pIC50 of a selection of compounds
REPORTED_ENDPOINT: pIC50

> print(dat)
                                smiles.code                         target.under.test  measured.value
1  Cc1cc(Nc2nc(Sc3ccc(NC(=O)C4CC4)cc3)nc(N3CCN(C)CC3)c2CO)n[nH]1  human Plk4 kinase domain (aa 2-275) (Homo sapiens, UniProt O00444)    6.00 to 7.00
2  COc1c(Nc2cc(C)[nH]n2)nc(Sc2ccc(S(=O)(=O)Cc3ccccc3)cc2)nc1N1CCN(C2CCN(Cc3ccccc3)CC2)CC1  human Plk4 kinase domain (aa 2-275) (Homo sapiens, UniProt O00444)          > 6.00
3  CNC(=O)Nc1ccc(Sc2nc(Nc3cc(C)[nH]n3)c(C)c(N(C)C(C)C)n2)cc1  human Plk4 kinase domain (aa 2-275) (Homo sapiens, UniProt O00444)          > 6.00
4  CCOc1c(Nc2cc(C)[nH]n2)nc(Sc2ccc(NC(C)=O)cc2)nc1N1CCN(CCOC)CC1  human Plk4 kinase domain (aa 2-275) (Homo sapiens, UniProt O00444)    6.00 to 7.00
5  COc1c(Nc2cc(C)[nH]n2)nc(Sc2ccc(S(=O)(=O)Cc3cc([N+](=O)[O-])ccc3F)cc2)nc1N1CCN(CCN(C)C)CC1  human Plk4 kinase domain (aa 2-275) (Homo sapiens, UniProt O00444)          > 6.00
6  COc1c(Nc2cc(C)[nH]n2)nc(Sc2ccc(S(C)(=O)=O)cc2)nc1C1CCN(CCN(C)C)CC1  human Plk4 kinase domain (aa 2-275) (Homo sapiens, UniProt O00444)    6.00 to 7.00
7  Cc1cc(Nc2nc(Sc3ccc(NC(=O)C4CC4)cc3)nc(N(C)CCN(C)C)c2C)n[nH]1  human Plk4 kinase domain (aa 2-275) (Homo sapiens, UniProt O00444)          > 6.00
8  COc1c(Nc2cc(C)[nH]n2)nc(Sc2ccc(S(=O)(=O)C(C)(C)c3c(F)c(F)cc(F)c3F)cc2F)nc1N1CCC(CC(=O)N(C)C)CC1  human Plk4 kinase domain (aa 2-275) (Homo sapiens, UniProt O00444)          > 6.00
